test: Inhibition of MERS-CoV Spike glycoprotein mediated cell-cell fusion; parameters: species or system Middle East respiratory syndrome-related coronavirus
readoutLabel: EC50

[[record]]
substance = "Ac-LDLTYEMASLQAVVKALNESY-NH2"
obsvalue = "> 50 µM"

